# assay.target: hERG channel (Homo sapiens, UniProt Q12809)
# Construct: expressed in transfected cells; host or cells: CHO (Chinese hamster ovary), CHOhERG
# Sequence (Q12809 whole entry): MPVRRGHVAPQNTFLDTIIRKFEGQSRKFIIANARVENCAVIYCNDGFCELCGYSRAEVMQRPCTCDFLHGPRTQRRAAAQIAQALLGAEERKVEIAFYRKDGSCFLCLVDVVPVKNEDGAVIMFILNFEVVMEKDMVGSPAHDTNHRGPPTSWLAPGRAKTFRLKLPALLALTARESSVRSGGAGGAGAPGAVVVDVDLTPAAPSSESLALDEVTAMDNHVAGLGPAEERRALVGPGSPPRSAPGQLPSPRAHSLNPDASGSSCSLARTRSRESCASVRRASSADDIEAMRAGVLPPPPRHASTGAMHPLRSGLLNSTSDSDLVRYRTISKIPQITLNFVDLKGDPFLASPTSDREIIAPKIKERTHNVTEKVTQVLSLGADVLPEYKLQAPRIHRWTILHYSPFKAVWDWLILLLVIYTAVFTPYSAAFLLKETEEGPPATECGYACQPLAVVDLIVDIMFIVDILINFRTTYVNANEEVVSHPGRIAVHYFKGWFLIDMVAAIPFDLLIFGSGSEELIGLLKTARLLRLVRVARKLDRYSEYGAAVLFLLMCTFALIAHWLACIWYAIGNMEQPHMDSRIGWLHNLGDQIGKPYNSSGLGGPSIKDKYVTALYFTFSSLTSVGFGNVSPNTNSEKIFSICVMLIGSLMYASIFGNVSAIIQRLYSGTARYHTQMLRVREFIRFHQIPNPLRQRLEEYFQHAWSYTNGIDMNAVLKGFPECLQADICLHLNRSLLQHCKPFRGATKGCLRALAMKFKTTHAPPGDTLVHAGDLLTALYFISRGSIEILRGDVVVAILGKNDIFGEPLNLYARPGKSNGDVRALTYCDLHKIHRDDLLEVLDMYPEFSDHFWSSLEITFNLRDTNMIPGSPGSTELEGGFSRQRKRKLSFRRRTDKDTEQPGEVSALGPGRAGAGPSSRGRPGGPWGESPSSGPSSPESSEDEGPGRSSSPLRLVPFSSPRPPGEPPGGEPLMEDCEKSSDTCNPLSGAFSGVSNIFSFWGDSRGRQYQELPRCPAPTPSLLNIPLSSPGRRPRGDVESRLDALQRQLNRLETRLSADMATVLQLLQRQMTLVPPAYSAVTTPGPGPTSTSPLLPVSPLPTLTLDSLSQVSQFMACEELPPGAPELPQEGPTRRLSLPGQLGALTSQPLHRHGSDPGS
# experiment.summary: hERG channel inhibition assay (patch-clamp, CHOhERG cells)
# Assay type: cell-based
# experimental.parameters: safety ratio
# reported hERG IC20/TLR9 IC50; entries follow
Answer with a bare number; do not write a unit.

Solved entries:
C[C@@H]1CN(c2ccc(C#N)c3ncccc23)C[C@@H]2CN(c3ccnc(N4CC(N)C4)c3)CCN21    214
C[C@@H]1CN(c2ccc(C#N)c3ncccc23)C[C@@H]2CN(c3nccc(N4CC(N)C4)n3)CCN21    53

input: Entry C[C@@H]1CN(c2ccc(C#N)c3ncccc23)C[C@@H]2CN(Cc3ccc(N4CCNCC4)nc3)CCN21 needs its hERG IC20/TLR9 IC50 filled in; supply it.
output: 210
